molecular target: hGPR119 (Homo sapiens, UniProt Q8TDV5); test: Human Tet-inducible cAMP assay; conditions: Flp-In T-REx 293 tetracycline inducible cells expressing GPR119; cAMP by HITHUNTER kit; 1 hour incubation
Sequence (Q8TDV5 whole entry): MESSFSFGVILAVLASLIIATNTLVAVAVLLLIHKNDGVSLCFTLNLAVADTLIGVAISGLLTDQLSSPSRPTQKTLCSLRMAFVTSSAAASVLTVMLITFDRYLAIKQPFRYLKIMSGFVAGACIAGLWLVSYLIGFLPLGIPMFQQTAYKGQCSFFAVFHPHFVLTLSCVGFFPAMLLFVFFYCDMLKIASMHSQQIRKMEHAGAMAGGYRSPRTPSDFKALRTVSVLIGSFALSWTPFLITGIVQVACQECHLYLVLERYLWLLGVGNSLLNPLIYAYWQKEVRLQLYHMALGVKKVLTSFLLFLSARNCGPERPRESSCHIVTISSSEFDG
quantityMeasured: EC50 (nM)

1) CC(C)(C)OC(=O)N1CCC(Oc2cc(=O)n(-c3ccc(C#N)c(F)c3)nc2C#N)CC1 :: 3
2) CC(C)(C)OC(=O)N1CCC(Oc2cc(=O)n(-c3ccc(Br)c(F)c3)nc2C#N)CC1 :: 95
3) CC(C)(C)OC(=O)N1CCC(Oc2cc(=O)n(-c3ccc(S(C)(=O)=O)cc3)nc2C#N)CC1 :: 83
4) CC(C)(C)OC(=O)N1CCC(Oc2cc(=O)n(-c3ccc(Cl)c(Cl)c3)nc2C(N)=O)CC1 :: 3390
5) COC(=O)c1nn(-c2ccc(S(C)(=O)=O)cc2)c(=O)cc1OC1CCN(C(=O)OC(C)(C)C)CC1 :: 4010
6) N#Cc1nn(-c2ccc(Cl)c(Cl)c2)c(=O)cc1OC1CCN(c2ncc(C(F)(F)F)cn2)CC1 :: 5
7) CC(=O)c1cnc(N2CCC(Oc3cnn(-c4ccc(S(C)(=O)=O)cc4)c(=O)c3)CC2)nc1 :: 4600
8) COC(=O)c1nn(-c2ccc(C#N)c(F)c2)c(=O)cc1OC1CCN(c2ncc(Br)cn2)CC1 :: 107
9) CCCc1cnc(N2CCC(Oc3cc(=O)n(-c4ccc(C#N)c(F)c4)nc3C#N)CC2)nc1 :: 8
